Kindly supply the reported phosphorylation enrichment values for the records listed here.
- targetOrTestSystem: FGFR3 (UniProt P22607)
- Sequence (P22607 whole entry, looked up): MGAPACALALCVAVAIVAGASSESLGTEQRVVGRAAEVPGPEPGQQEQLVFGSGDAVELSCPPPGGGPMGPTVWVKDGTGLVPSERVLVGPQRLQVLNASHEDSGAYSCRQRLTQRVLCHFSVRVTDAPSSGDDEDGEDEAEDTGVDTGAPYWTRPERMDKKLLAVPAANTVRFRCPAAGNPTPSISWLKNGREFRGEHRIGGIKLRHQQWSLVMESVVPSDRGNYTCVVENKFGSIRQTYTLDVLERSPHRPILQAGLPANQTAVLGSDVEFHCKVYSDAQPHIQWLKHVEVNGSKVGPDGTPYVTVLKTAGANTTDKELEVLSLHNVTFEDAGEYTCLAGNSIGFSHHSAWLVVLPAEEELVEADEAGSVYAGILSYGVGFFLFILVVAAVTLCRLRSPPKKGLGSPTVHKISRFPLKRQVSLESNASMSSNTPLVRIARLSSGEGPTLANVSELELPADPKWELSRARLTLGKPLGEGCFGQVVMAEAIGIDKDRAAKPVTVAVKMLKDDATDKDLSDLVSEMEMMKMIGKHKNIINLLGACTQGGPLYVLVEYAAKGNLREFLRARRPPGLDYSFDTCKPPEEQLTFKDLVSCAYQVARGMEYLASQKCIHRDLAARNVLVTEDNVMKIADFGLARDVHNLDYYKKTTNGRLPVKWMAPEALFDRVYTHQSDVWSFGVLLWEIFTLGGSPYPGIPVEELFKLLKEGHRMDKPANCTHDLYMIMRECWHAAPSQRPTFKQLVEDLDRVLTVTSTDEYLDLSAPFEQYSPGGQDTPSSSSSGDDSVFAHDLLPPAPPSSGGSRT
- methodDescription: phosphorylation enrichment, bacterial display (enrichment ratio); higher = better substrate or ligand; peptides without Tyr show the background;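 also: 11-residue human phosphosite peptides and single-mutation variants displayed on the E. coli surface, counted by deep sequencing, each peptide's frequency after selection divided by its frequency in the unselected input library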;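 also: frequency after pTyr selection over input frequency; kinase dosed for 20-30% of maximal phosphorylation in three min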
Please reply with the value in numeric form only.

So, KKHIPHREHKS [CSNK1G2_Y206_Y206H] ? Its phosphorylation enrichment was 4.9

So, EGWQVYRLGTR [MISP_Y95_A99T] ? Its phosphorylation enrichment was 0.645

So, FCRITYDIFPF [INTS13_Y67_M66T_YF] ? Its phosphorylation enrichment was 1.05

So, NRVEIYDKTVE [CYFIP1_Y108_E109D] ? Its phosphorylation enrichment was 0.519

So, TEALFYTDDPA [ADPRS_Y75_T79P_YF] ? Its phosphorylation enrichment was 1.3

So, CLLHCYFSQIH [MCM3AP_Y873_R878H] ? Its phosphorylation enrichment was 0.736

So, DSMQSYDLDYP [UNC13B_Y243] ? Its phosphorylation enrichment was 0.673

So, VMSGPYELKAL [IL1B_Y140] ? Its phosphorylation enrichment was 0.57

So, SVQVDYMKTIL [GLYATL2_Y127] ? Its phosphorylation enrichment was 0.643

So, ATDLAYYLVCK [ASL_Y375_R379C] ? Its phosphorylation enrichment was 3.06

So, GGMTEYNLVVV [KRAS_Y4_K5N] ? Its phosphorylation enrichment was 1.05

So, IRTIDYRYTVW [IDS_Y497] ? Its phosphorylation enrichment was 0.732

So, TLSGIYQYSIA [FOXL2_Y81_I84S] ? Its phosphorylation enrichment was 1.03

So, FARNCYVAGQF [G6PD_Y107_S106C_YF] ? Its phosphorylation enrichment was 0.553
